molecular target: TRPML1 (Homo sapiens, UniProt Q9GZU1); test: Fluorescent TRPML1 assay (Fluo4-AM calcium fluorescence in doxycycline-induced HEK-293 Trex cells); assay type: cell-based; conditions: fluorescent calcium assay
Sequence (Q9GZU1 whole entry L15A/L16A/L577A/L578A, form open): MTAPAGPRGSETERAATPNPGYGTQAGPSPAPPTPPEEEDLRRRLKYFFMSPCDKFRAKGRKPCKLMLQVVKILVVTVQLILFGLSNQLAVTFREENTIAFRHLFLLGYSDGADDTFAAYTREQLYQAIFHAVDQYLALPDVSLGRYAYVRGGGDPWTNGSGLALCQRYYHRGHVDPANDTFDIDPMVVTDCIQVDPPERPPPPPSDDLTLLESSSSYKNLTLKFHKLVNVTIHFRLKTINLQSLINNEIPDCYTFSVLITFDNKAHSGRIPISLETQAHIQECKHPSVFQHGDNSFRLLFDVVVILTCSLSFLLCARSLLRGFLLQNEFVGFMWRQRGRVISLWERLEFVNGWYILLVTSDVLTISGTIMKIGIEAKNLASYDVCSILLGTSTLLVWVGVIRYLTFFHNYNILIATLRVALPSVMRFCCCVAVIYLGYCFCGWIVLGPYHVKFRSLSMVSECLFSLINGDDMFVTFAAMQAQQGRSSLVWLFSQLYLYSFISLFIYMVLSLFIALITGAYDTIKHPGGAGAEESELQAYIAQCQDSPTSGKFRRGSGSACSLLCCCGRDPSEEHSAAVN
pEC50: −log10 of the molar value.
Each entry below lists one item and its recorded pEC50 value.

{"columns": ["Record Smiles", "Recorded Result"],
 "data": [
  ["C[C@H]1CN(C(=O)OC(C)(C)C)CCN1c1ncnc2c1c(C(F)(F)F)cn2-c1cc(C#N)ccn1", "> 7.00"],
  ["C[C@@H]1CN(c2cn(-c3cc(C#N)ccn3)c3ncnc(N4CCN(C(=O)OC(C)(C)C)C[C@@H]4C)c23)CCO1", "> 7.00"],
  ["C[C@H]1CN(C(=O)OC(C)(C)C)CCN1c1ncnc2c1c(C1CC1)cn2-c1cc(F)cc(F)c1", "> 7.00"],
  ["Cc1nccnc1-c1cn(-c2ccc(Cl)cc2)c2ncnc(N3C[C@@H](C)N(C(=O)OC(C)(C)C)C[C@@H]3C)c12", "6.30 to 7.00"],
  ["C[C@@H]1CN(c2ncnc3c2c(-c2ccccc2F)cn3-c2nccc(C#N)n2)[C@@H](C)CN1C(=O)OC(C)(C)C", "> 7.00"],
  ["COc1cncc(-n2cc(C3CC3)c3c(N4CCN(C(=O)OC(C)(C)C)CC4)ncnc32)c1", "5.70 to 6.30"]
]}

--- query ---
Recorded pEC50 for `C[C@H]1CN(C(=O)OC(C)(C)C)CCN1c1ncnc2c1c(-c1cnccn1)cn2-c1cc(F)cc(F)c1` , please?
5.70 to 6.30

----------
Listed below: EC50 values for each entry.
target: TRPML1 (Homo sapiens, UniProt Q9GZU1); test: Fluorescent TRPML1 assay (Fluo4-AM calcium fluorescence in doxycycline-induced HEK-293 Trex cells); format: cell-based; details: fluorescent calcium assay

Below: 6 compounds and their reported EC50.
{"columns": ["Record Smiles", "Subject Of Test", "Recorded Result"],
 "data": [
  ["C[C@H]1CN(C(=O)OC(C)(C)C)CCN1c1ncnc2c1c(C1CC1)nn2-c1cccc(C#N)c1", "TRPML1 (Homo sapiens, UniProt Q9GZU1)", "< 100 nM"],
  ["CCc1cn(-c2cc(C#N)ccn2)c2ncnc(N3C[C@@H](C)N(C(=O)OC(C)(C)C)C[C@@H]3C)c12", "TRPML1 (Homo sapiens, UniProt Q9GZU1)", "< 100 nM"],
  ["C[C@H]1CN(c2ncnc3c2c(C2CC2)cn3-c2cc(F)cc(F)c2)CCN1C(=O)OC(C)(C)C", "TRPML1 (Homo sapiens, UniProt Q9GZU1)", "100 to 500 nM"],
  ["CCOC(=O)N1C[C@H](C)N(c2ncnc3c2c(C2CC2)cn3-c2cccc(Cl)c2)[C@@H](C)C1", "TRPML1 (Homo sapiens, UniProt Q9GZU1)", "100 to 500 nM"],
  ["C[C@H]1CN(C(=O)OC(C)(C)C)CCN1c1ncnc2c1c(-c1ccccn1)cn2-c1cc(C#N)ccn1", "TRPML1 (Homo sapiens, UniProt Q9GZU1)", "< 100 nM"],
  ["C[C@H]1CN(C(=O)OC(C)(C)C)CCN1c1ncnc2c1c(C1CCOCC1)nn2-c1ccccc1", "TRPML1 (Homo sapiens, UniProt Q9GZU1)", "500 to 2000 nM"]
]}

Let us move to another entry and its EC50.
Return EC50 measured with TRPML1 (Homo sapiens, UniProt Q9GZU1) given this compound: `Cc1nccnc1-c1cn(-c2cc(F)cc(F)c2)c2ncnc(N3C[C@@H](C)N(C(=O)OC(C)(C)C)C[C@@H]3C)c12`
< 100 nM
